# Test system: SF-539 CNS
# experimentDescription: NCI-60 one-dose screen, 48 h
# appliedConditions: 10 µM unless noted
Compounds without any hit were thinned out: in the full panel of roughly 83,000, 20% have a hit. Calls of active or inactive are those of the source. How the source made its calls: active means growth percent below 10; inactive means the rest.
Permitted responses: yes (1) for active, no (0) for inactive

Would you mind telling me which call this test gave O=C1[C@H]2Cc3c([nH]c4ccccc34)[C@H](c3ccc(Cl)cc3)N2C(=O)CN1C1CCN(Cc2c(Cl)cccc2Cl)CC1 ?
no (0)

In this assay, the call recorded for COc1ccc(-c2nnc(SCc3ccc(O)c4ncccc34)o2)cc1 was what?
no (0)

I'd appreciate the recorded outcome for CCCCCCNC(=O)Oc1ccc(/C(=C(/C)c2ccccc2)c2ccc(OCCN(C)C)cc2)cc1 from this test.
no (0)

// return assay outcome for COc1ccc2c(C3=C(c4cn(C)c5ccccc45)C(=O)NC3=O)coc2c1
yes (1)

Recorded test call requested for NC(=O)c1c(NC(=O)c2cccc(OC(F)(F)F)c2)sc2c1CCC(=O)C2
no (0)

Given CC(=O)c1ccc(NC(=O)COc2ccc(C3SCC(=O)N3c3ccc(Br)cc3)cc2)cc1 (centres undefined) , state the outcome it received in this test.
no (0)

Each molecule tested received a call. Report the one for C#C[C@]1(O)CC[C@H]2[C@@H]3CC=C4c5sc(Nc6ccc(OC)nc6)nc5CC[C@]4(C)[C@H]3CC[C@@]21C .
no (0)

Tell me the assay call for O=C(CCCCCCN1CC(=O)N2[C@@H](c3ccc(Cl)c(F)c3)c3[nH]c4ccccc4c3C[C@H]2C1=O)NO please.
no (0)

Hi, sorry to bother you, what did the test record for CCOC(=O)Nc1cccc(-n2cnc3cc(-c4ccc(O)cc4)ccc32)c1 ?
yes (1)

Can you look up the reported call for CCCCCCCCNC(=O)c1ccc(Cn2c(CCCC)nc3c(N)nc4ccccc4c32)cc1 for me?
yes (1)

Please indicate how the test categorized Fc1ccc(-c2cc3nc(C(Cl)Cl)nc(-c4cccs4)n3n2)cc1 .
yes (1)

GET /call?item= CCOC(=O)C1=C(C)Nc2nnc(Nc3ccccc3)n2C1c1ccccc1 (centres undefined) returns the recorded outcome of this test.
yes (1)

Check the results log: what was the call for COc1cc(-c2nc(SCc3ccc(C)cc3)[nH]c(=O)c2C#N)ccc1OCc1ccccc1 ?
no (0)

Fill in: this test's call for C/C(=C(/C)C1CC1CCN(C(=O)c1ccc([N+](=O)[O-])cc1)S(=O)(=O)c1ccc(C)cc1)C1CCCCC1 (centres undefined) is ___
no (0)

What call does the record list for CC(C)Sc1nc(NC2CC2)c(C#N)c(-c2ccccc2)n1 ?
no (0)

Could you kindly confirm the outcome this assay logged for O=C1CSC(=O)N1Cc1cc2ccccc2nc1Cl ?
no (0)

Name the outcome recorded for CC(C)=CCC[C@](C)(O)[C@H]1CC[C@]2(C)[C@@H]1CC[C@@H]1[C@@]3(C)CCC(NC(=O)c4ccccc4C(=O)O)C(C)(C)[C@@H]3CC[C@]12C (some centres undefined) in the assay.
no (0)

Name the outcome recorded for CN(C)CCn1c2ccc(N)cc2c2nc3ccccc3nc21 in the assay.
no (0)

Short answer needed: outcome of this test for COc1ccc(C2C(C#N)=C(N)Oc3c2sc2ccc(C)cc32)cc1 (centres undefined) ?
no (0)

* * *

Can you tell me growth for the items I'm about to list?
# Tested on: SK-MEL-2 melanoma
# experimentDescription: NCI-60 one-dose screen, 48 h (100 = growth as untreated, 0 = no growth, -100 = all killed)
# appliedConditions: 10 µM unless noted
Compounds without any hit were thinned out: in the full panel of roughly 83,000, 20% have a hit.
Lab book: enter the figure in %, no units written.

Entry COc1ccc(-c2nnc(SCc3ccc(O)c4ncccc34)o2)cc1 has what growth?
48.3

So what's the measured growth for this one? C#CCOc1ccccc1C(Nc1ccccc1)c1nnnn1C1CCCCC1 (stereo not given)
110

Fill in the blank: the reported growth of O=C(CSc1nnc(-c2cccs2)n1-c1ccccc1)Nc1ccc(F)cc1 is ____.
110

Any idea what growth was measured for O=C(Nc1cc(Cl)cc(Cl)c1)Nc1nc2ccc([N+](=O)[O-])cc2s1 ?
-22.2

Quick one: growth for CS(=O)(=O)c1ccc(-c2nn(-c3ccccc3)cc2/C=C/C(=O)c2ccc(Br)cc2)cc1 ?
103

Which growth value belongs to C=C(C)[C@@H]1CC[C@]2(C(=O)ON)CC[C@]3(C)[C@H](CC[C@@H]4[C@@]5(C)C/C(=C/c6ccc(Br)cc6)C(=O)C(C)(C)[C@@H]5CC[C@]43C)[C@@H]12 ?
88.8

Fill blank: measured growth of the compound COc1ccc(Cn2cc3c(c2-c2ccccc2)CCCc2cnoc2-3)cc1 is ____.
80.2

Name the recorded growth for Oc1ccc(CSc2nnc(-c3ccc(Br)cc3)n2-c2ccccc2)c2cccnc12 .
39.4

What does the record list as growth for COc1cc(/C=C/C(=O)c2ccc(NC(=O)CSc3nnc(-c4ccc5nc(-c6ccccc6)[nH]c5c4)o3)cc2)cc(OC)c1OC ?
105

Which growth value is on record for O=C(Nc1cccc(-c2nc(-c3ccc(NC(=O)c4cccnc4)cc3Cl)no2)c1)Nc1ccc(NC(=O)C2CC2)c(C(F)(F)F)c1 ?
-55

Give the measured growth of CCCCCCNC(=O)Oc1ccc(/C(=C(/C)c2ccc(OC)cc2)c2ccc(OCCN3CCCC3)cc2)cc1 .
93.4

Could you tell me which growth is on file for O=S(=O)(Nc1ccc(-n2cnc3cc(-c4ccc(O)cc4)ccc32)cc1)C1CC1 ?
95

Requested field: growth. Item: O=S(=O)(Nc1cc(Cl)cc(Cl)c1)c1ccc(-c2cnc(C3CC3)o2)cc1
56.8

# growth lookup, item CCCCOc1ccc(S(=O)(=O)N2CCN(c3nccc(N4CCOCC4)n3)CC2)cc1
33.5

What value of growth has been recorded for this entry: COC[C@@]1(C)CC[C@]2(C)CC[C@]3(C)C(=CC[C@@H]4[C@@]5(C)CCCNC(C)(C)[C@@H]5CC[C@]43C)C2C1 (stereo not given in full)
78.1

What value of growth has been reported for the following compound? C#C[C@]1(O)CC[C@H]2[C@@H]3CC=C4c5sc(Nc6ccc(OC)nc6)nc5CC[C@]4(C)[C@H]3CC[C@@]21C
68

Record request: growth value, item CC(C)c1nn(-c2ccccc2)c(N2CCCCC2)c1/C=N/NC(N)=S
104

Find the recorded growth belonging to O=C(NNc1nc2cc(F)c(F)cc2n2cccc12)c1cccnn1 and report it.
19.3

Recorded growth of COc1ccc2c(c1)c(-c1nnc(N)nc1-c1cn(C)c3ccccc13)cn2C , please.
95.2

What measured growth goes with O=C(NCCCNc1cc(-c2cn(-c3ccccc3)nc2-c2cccc(O)c2)ccn1)Nc1cccc(C(F)(F)F)c1 ?
58.1

Fill in the blank: the reported growth of Nc1nc(N)c2c(n1)NC(c1ccccc1)CC(c1ccc(Nc3nc(NCCO)nc(Nc4ccc(Cl)cc4)n3)cc1)=N2 (stereo not given) is ____.
71.9

Quick check: growth of COc1cc(/C=C2\SC(=O)NC2=O)ccc1OCC(=O)Nc1ccc(C(=O)/C=C/c2cc3ccccc3nc2Cl)cc1 ?
103

Would you kindly share the measured growth for C#C[C@]1(O)CC[C@H]2[C@@H]3CC=C4c5sc(-c6ccccn6)nc5CC[C@]4(C)[C@H]3CC[C@@]21C ?
70.7

Could you share which growth value was measured for COc1ccc([C@H]2c3[nH]c4ccccc4c3C[C@@H]3C(=O)N(C4CCN(Cc5ccccc5)CC4)CC(=O)N23)c(OC)c1 ?
103

Give the measured growth of COc1ccc(/C=N\NC(=O)c2ccc3nc(-c4ccc(Br)cc4)[nH]c3c2)cc1 .
96.9

Any idea what growth was measured for COc1ccccc1N1CCN(C2=NN=C(c3cccc(Cl)c3)c3ccccc3C2)CC1 ?
0.738

Quick check: growth of CCCCSc1nnc(-c2ccc(-c3ccc(Cl)cc3)nc2C)o1 ?
106

Please look up its growth: NNC(=O)c1sc2nc(-c3cnccn3)cc(-c3cccs3)c2c1N
102

Param item = COc1cc(CNC(=O)Cc2ccccc2[N+](=O)[O-])ccc1OCC(=O)NO ; retrieve measured growth.
104

What value of growth has been recorded for this entry: CSc1ccc(/C(=N/N=C(N)N)c2ccccc2)cc1
58.7

Need growth of COc1ccc(C(=O)c2c(N)c(C#N)cn2-c2cccc(OC)c2)cc1 , thanks.
28.8

Please report the recorded growth for CC[C@]12C=CCN3CC[C@]4(C(=C(C(=O)OC)C1)Nc1cc5c(cc14)[C@@H]1[C@H](O5)[C@@H](O)[C@@]4(CC)CC(C(=O)OC)=C5Nc6cc(OC)ccc6[C@@]56CCN1[C@@H]46)[C@@H]32 .
32.1

Quick check: growth of O=C(NNc1nc2cc(F)cc(F)c2n2cccc12)c1ccncn1 ?
22

If you can, please state the reported growth value of C#C[C@]1(O)CC[C@H]2[C@@H]3CC=C4c5sc(Nc6cccc(C)n6)nc5CC[C@]4(C)[C@H]3CC[C@@]21C .
-9.35

// returns reported growth for input Cc1ccc(-c2cc(-c3ccc(N(C)C)cc3)n3c(n2)nc2ccccc23)cc1
16
